EXPERIMENTAL_SYSTEM: DNA repair protein RAD51 homolog 1 (Homo sapiens) (UniProt Q06609)
Sequence (Q06609 whole entry, looked up): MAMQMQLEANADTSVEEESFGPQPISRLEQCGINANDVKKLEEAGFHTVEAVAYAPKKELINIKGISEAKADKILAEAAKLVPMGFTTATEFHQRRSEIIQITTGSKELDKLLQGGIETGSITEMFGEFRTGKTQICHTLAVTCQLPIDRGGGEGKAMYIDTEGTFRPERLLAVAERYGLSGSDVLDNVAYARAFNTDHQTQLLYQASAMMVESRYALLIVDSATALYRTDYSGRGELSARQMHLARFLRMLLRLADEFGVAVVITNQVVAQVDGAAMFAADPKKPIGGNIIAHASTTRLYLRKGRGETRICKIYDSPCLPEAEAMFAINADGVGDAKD
PROCEDURE_DETAILS: blockers of RAD51-mediated homologous recombination – biochemical, fluorescence, primary screen (AID 1385);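 also: 0% = DMSO control wells and 100% = blanks with heterologous ssDNA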
DETAILS: hRad51 DNA strand exchange, fluorescence dequenching; at 10 µM
Screen size: about 200,000 compounds; about 170 (0.085%) were called active.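 The calls were made as follows: active = inhibition above 40% at the single screening dose; inactive = the rest.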 This is one part of a sample in which actives are shown more often than they occur.
Classes used: 1 = active, -1 = inactive

>>> print(df.to_string())
                                    compound                       experimental_system  class_name
 0  COc1cc(N2C(=O)CC3(CCCC3)CC2=O)cc(OC)c1OC  DNA repair protein RAD51 homolog 1 (Homo sapiens) (UniProt Q06609)          -1
 1  Cn1c(SCC(=O)N/N=C/c2ccc(O)c(O)c2)nc2ccccc21  DNA repair protein RAD51 homolog 1 (Homo sapiens) (UniProt Q06609)          -1
 2        COc1ccc(CCNC2=CC(=O)CC(C)(C)C2)cc1  DNA repair protein RAD51 homolog 1 (Homo sapiens) (UniProt Q06609)          -1
 3  CC12CN3CCN(CC(C3)/C1=N\NC(=O)c1ccccc1N)C2  DNA repair protein RAD51 homolog 1 (Homo sapiens) (UniProt Q06609)          -1
 4     Cc1ccsc1/C=N/NC(=O)Cc1cc(=O)[nH][nH]1  DNA repair protein RAD51 homolog 1 (Homo sapiens) (UniProt Q06609)          -1
 5          Cc1ccc2c(c1)nnc1nnc(SCC(=O)O)n12  DNA repair protein RAD51 homolog 1 (Homo sapiens) (UniProt Q06609)          -1
 6              O=C(CCc1ccccc1)NNc1ccc(F)cc1  DNA repair protein RAD51 homolog 1 (Homo sapiens) (UniProt Q06609)          -1
 7    CCCc1c(C(=O)Nc2ccc(F)cc2)cnn1-c1ccccc1  DNA repair protein RAD51 homolog 1 (Homo sapiens) (UniProt Q06609)          -1
 8         CC(C)CC(=O)N/C(N)=N/c1nc2ccccc2s1  DNA repair protein RAD51 homolog 1 (Homo sapiens) (UniProt Q06609)           1
 9  O=C(Nc1nc2ccc([N+](=O)[O-])cc2s1)c1ccncc1  DNA repair protein RAD51 homolog 1 (Homo sapiens) (UniProt Q06609)          -1
10  O=C(Nc1ccccc1)C1CC(=O)n2c(nc3ccccc32)N1 (stereo not given)  DNA repair protein RAD51 homolog 1 (Homo sapiens) (UniProt Q06609)          -1
11  COc1ccc(CCn2ccc(O)c(Cc3ccc(Cl)cc3Cl)c2=O)cc1OC  DNA repair protein RAD51 homolog 1 (Homo sapiens) (UniProt Q06609)           1
12  O=C(NCCN1CCOCC1)c1ccc2c(c1)N(Cc1ccc(Cl)cc1)CCS2  DNA repair protein RAD51 homolog 1 (Homo sapiens) (UniProt Q06609)          -1
13  O=C(O)CC12CC3CC(C1)CC(n1ncc(NCc4ccc(F)cc4)c(Cl)c1=O)(C3)C2  DNA repair protein RAD51 homolog 1 (Homo sapiens) (UniProt Q06609)          -1
14  Cc1cc(-c2nc(C)c(-c3nnc(SCC(=O)Nc4ccccc4)n3C)s2)no1  DNA repair protein RAD51 homolog 1 (Homo sapiens) (UniProt Q06609)          -1
15  Cc1ccc(-c2nc(SCC(=O)Nc3ccccc3OC(F)F)c3c(C)c(C(=O)O)sc3n2)cc1  DNA repair protein RAD51 homolog 1 (Homo sapiens) (UniProt Q06609)          -1
16  Nc1c(N(CCO)C(=O)C2CCCCC2)c(=O)[nH]c(=O)n1Cc1ccccc1  DNA repair protein RAD51 homolog 1 (Homo sapiens) (UniProt Q06609)          -1
17  COc1ccc(CCNC2=C(Cl)C(=O)N(Cc3ccccc3)C2=O)cc1OC  DNA repair protein RAD51 homolog 1 (Homo sapiens) (UniProt Q06609)          -1
18  O=C1N=C(N2CCc3ccccc3C2)S/C1=C\c1ccc(O)cc1  DNA repair protein RAD51 homolog 1 (Homo sapiens) (UniProt Q06609)          -1
19  COc1ccc(CN(Cc2ccc(OC)cc2)C(=O)c2cccs2)cc1  DNA repair protein RAD51 homolog 1 (Homo sapiens) (UniProt Q06609)          -1
20  CCn1c(=O)c2cc(C(=O)Nc3cccc(C(C)=O)c3)sc2c2ccccc21  DNA repair protein RAD51 homolog 1 (Homo sapiens) (UniProt Q06609)          -1
21                      Cc1nnc(Nc2ccccc2F)s1  DNA repair protein RAD51 homolog 1 (Homo sapiens) (UniProt Q06609)          -1
22  CC(=O)NCc1ccc(S(=O)(=O)NC2CCN(Cc3ccccc3)CC2)cc1  DNA repair protein RAD51 homolog 1 (Homo sapiens) (UniProt Q06609)          -1
23  COc1cccc(C(=O)Nc2ccc(NC(=O)c3ccco3)cn2)c1  DNA repair protein RAD51 homolog 1 (Homo sapiens) (UniProt Q06609)          -1
24  CC(C)CCN1NC2(CCC(C)CC2)NC1=S (stereo not given)  DNA repair protein RAD51 homolog 1 (Homo sapiens) (UniProt Q06609)          -1
25  COc1ccc(C(=O)O/N=C(\N)Cc2ccc(Cl)cc2Cl)cc1OC  DNA repair protein RAD51 homolog 1 (Homo sapiens) (UniProt Q06609)          -1
26    CNC(=O)c1csc(Cc2c(Cl)sc3ccc(Cl)cc23)n1  DNA repair protein RAD51 homolog 1 (Homo sapiens) (UniProt Q06609)          -1
27  COc1ccc(NS(=O)(=O)c2ccc(N3CCOCC3)c(NC(=O)c3ccccc3Br)c2)cc1  DNA repair protein RAD51 homolog 1 (Homo sapiens) (UniProt Q06609)          -1
28      Cn1cnc(S(=O)(=O)Nc2ccc3c(c2)OCCO3)c1  DNA repair protein RAD51 homolog 1 (Homo sapiens) (UniProt Q06609)          -1
29  Cc1ccnc(NC(=O)c2ccc(NC(=O)c3ccco3)cc2)c1  DNA repair protein RAD51 homolog 1 (Homo sapiens) (UniProt Q06609)          -1
30  NC(=O)c1ccc(NC(=O)COC(=O)c2ccc([N+](=O)[O-])cc2)cc1  DNA repair protein RAD51 homolog 1 (Homo sapiens) (UniProt Q06609)          -1
31  COc1cccc(Nc2nc(N)c([N+](=O)[O-])c(NCc3ccco3)n2)c1  DNA repair protein RAD51 homolog 1 (Homo sapiens) (UniProt Q06609)          -1
32  O=S(=O)(c1ccccc1)N1CN(Cc2ccc(F)cc2)c2nc3ccccc3nc21  DNA repair protein RAD51 homolog 1 (Homo sapiens) (UniProt Q06609)          -1
33  Cc1ccc(CNC(=O)c2ccc3c(c2)S(=O)(=O)c2ccccc2C3=O)cc1  DNA repair protein RAD51 homolog 1 (Homo sapiens) (UniProt Q06609)          -1
34  CSc1sc(C(=O)NNC(=O)c2ccc(Cl)cc2)c2c1C=CCC2  DNA repair protein RAD51 homolog 1 (Homo sapiens) (UniProt Q06609)          -1
35           O=c1cc(CCl)nc2scc(-c3ccccc3)n12  DNA repair protein RAD51 homolog 1 (Homo sapiens) (UniProt Q06609)          -1
36  CC1(C)C2CC[C@]3(C)C(CC=C4[C@@H]5C[C@@](C)(CO)CC[C@]5(C(=O)O)CC[C@]43C)[C@@]2(C)CC[C@@H]1O (stereo not given in full)  DNA repair protein RAD51 homolog 1 (Homo sapiens) (UniProt Q06609)          -1
37   COCc1cc(=O)[nH]c(-c2ccc(C(F)(F)F)cc2)n1  DNA repair protein RAD51 homolog 1 (Homo sapiens) (UniProt Q06609)          -1
38       Cc1nc2cc(NC(=O)Nc3cccc(F)c3)ccc2n1C  DNA repair protein RAD51 homolog 1 (Homo sapiens) (UniProt Q06609)          -1
39   Clc1ccc(C[n+]2cc(-c3ccccc3)n3c2CCC3)cc1  DNA repair protein RAD51 homolog 1 (Homo sapiens) (UniProt Q06609)          -1
40           O=C(N/N=C/c1ccco1)c1csc2c1CCCC2  DNA repair protein RAD51 homolog 1 (Homo sapiens) (UniProt Q06609)          -1
41  CCCN(CCC)S(=O)(=O)c1ccc(C(=O)N2CC3CCC(CC3)C2)cc1  DNA repair protein RAD51 homolog 1 (Homo sapiens) (UniProt Q06609)          -1
42  N#Cc1ccc(Oc2ccc(C(F)(F)F)cc2NC(=O)c2ccc(F)cc2)cc1  DNA repair protein RAD51 homolog 1 (Homo sapiens) (UniProt Q06609)          -1
43                       Fc1ccc(Nc2nnns2)cc1  DNA repair protein RAD51 homolog 1 (Homo sapiens) (UniProt Q06609)          -1
44  Clc1ccc(C[n+]2cc(-c3ccc(Cl)cc3)n3c2CCC3)cc1  DNA repair protein RAD51 homolog 1 (Homo sapiens) (UniProt Q06609)          -1
